- system name: Xanthine oxidase (from bovine milk, Sigma) (Bos taurus (Bovine))
- Sequence (P80457 whole entry): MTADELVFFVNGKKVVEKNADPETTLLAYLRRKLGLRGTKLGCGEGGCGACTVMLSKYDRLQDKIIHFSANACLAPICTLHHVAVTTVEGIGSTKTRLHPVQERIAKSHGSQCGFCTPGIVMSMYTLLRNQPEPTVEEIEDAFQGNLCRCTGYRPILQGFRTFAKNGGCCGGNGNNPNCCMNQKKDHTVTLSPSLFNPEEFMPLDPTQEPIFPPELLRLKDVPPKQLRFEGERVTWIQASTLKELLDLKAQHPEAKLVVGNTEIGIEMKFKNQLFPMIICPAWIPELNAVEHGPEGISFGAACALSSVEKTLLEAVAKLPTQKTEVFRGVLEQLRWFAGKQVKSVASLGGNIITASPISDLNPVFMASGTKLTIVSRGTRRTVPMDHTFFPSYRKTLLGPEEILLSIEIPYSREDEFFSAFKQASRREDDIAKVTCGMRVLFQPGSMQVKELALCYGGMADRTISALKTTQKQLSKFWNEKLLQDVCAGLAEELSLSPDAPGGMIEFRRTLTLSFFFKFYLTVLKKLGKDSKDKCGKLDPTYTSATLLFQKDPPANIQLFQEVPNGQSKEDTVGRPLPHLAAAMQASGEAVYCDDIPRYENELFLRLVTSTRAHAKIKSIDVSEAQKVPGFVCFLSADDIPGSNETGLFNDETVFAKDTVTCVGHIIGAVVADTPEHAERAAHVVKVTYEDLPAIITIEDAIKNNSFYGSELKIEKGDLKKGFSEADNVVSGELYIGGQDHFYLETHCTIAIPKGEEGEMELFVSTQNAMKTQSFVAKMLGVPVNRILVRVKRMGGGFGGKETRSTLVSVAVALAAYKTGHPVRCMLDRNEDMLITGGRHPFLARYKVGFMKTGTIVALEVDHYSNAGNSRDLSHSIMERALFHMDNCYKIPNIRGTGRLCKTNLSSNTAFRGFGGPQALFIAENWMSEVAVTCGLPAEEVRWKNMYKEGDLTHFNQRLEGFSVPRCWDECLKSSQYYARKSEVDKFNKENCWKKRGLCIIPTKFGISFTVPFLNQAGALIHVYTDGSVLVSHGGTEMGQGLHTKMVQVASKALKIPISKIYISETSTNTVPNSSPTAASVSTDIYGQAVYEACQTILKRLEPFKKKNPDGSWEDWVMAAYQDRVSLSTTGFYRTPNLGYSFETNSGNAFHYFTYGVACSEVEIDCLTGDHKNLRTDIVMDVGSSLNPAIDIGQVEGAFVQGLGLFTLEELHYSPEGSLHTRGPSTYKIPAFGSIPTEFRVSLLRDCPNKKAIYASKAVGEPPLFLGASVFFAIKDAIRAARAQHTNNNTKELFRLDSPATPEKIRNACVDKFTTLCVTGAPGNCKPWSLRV
- method summary: Xanthine oxidase inhibitory activity
- Format: biochemical
- test settings: 0.02 units/mL, xanthine 200 μM, 10 minutes at room temperature, absorbance at 290 nm
- Description: (1) Preparation of Test Compounds Test compounds were dissolved in DMSO (Wako) at 40 mM concentration and then diluted to intended concentrations with phosphate-buffered saline (PBS). (2) Method for Measurement Xanthine oxidase (from bovine milk, Sigma) was prepared with phosphate-buffered saline (PBS) at 0.02 units/mL, and then the solution was added to 96 well plates at 50 μL/well. […] Absorbance at 290 nm was measured using a microplate reader SpectraMax Plus 384 (Molecular device). […]
IC50 values for the compounds below.

[
  {
    "compound string": "N#Cc1cn(-c2ccc(C(=O)O)cc2)cc1-c1ccccc1OCCCO",
    "system name": "Xanthine oxidase (from bovine milk, Sigma) (Bos taurus (Bovine))",
    "IC50": "6 nM"
  },
  {
    "compound string": "N#Cc1cn(-c2ccc(C(=O)O)cc2)cc1/C=C/c1ccccc1",
    "system name": "Xanthine oxidase (from bovine milk, Sigma) (Bos taurus (Bovine))",
    "IC50": "7.1 nM"
  },
  {
    "compound string": "N#Cc1cn(-c2ccc(C(=O)O)cc2)cc1-c1ccccc1OCc1ccccc1",
    "system name": "Xanthine oxidase (from bovine milk, Sigma) (Bos taurus (Bovine))",
    "IC50": "52.4 nM"
  },
  {
    "compound string": "N#Cc1cn(-c2ccc(C(=O)O)c(O)c2)cc1-c1cccc(F)c1F",
    "system name": "Xanthine oxidase (from bovine milk, Sigma) (Bos taurus (Bovine))",
    "IC50": "24.2 nM"
  },
  {
    "compound string": "N#Cc1cn(-c2ccc(C(=O)O)cc2)nc1NC(=O)c1ccccc1",
    "system name": "Xanthine oxidase (from bovine milk, Sigma) (Bos taurus (Bovine))",
    "IC50": "3.1 nM"
  },
  {
    "compound string": "N#Cc1cn(-c2ccc(C(=O)O)c(O)c2)cc1-c1ccccc1O",
    "system name": "Xanthine oxidase (from bovine milk, Sigma) (Bos taurus (Bovine))",
    "IC50": "5.5 nM"
  },
  {
    "compound string": "N#Cc1cn(-c2ccc(C(=O)O)c(O)c2)cc1-c1cc(F)cc(F)c1",
    "system name": "Xanthine oxidase (from bovine milk, Sigma) (Bos taurus (Bovine))",
    "IC50": "15.1 nM"
  },
  {
    "compound string": "CCOc1cn(-c2ccc(C(=O)O)cc2)cc1C#N",
    "system name": "Xanthine oxidase (from bovine milk, Sigma) (Bos taurus (Bovine))",
    "IC50": "4.1 nM"
  },
  {
    "compound string": "N#Cc1cn(-c2ccc(C(=O)O)cc2)cc1-c1ccccc1OCc1ccsc1",
    "system name": "Xanthine oxidase (from bovine milk, Sigma) (Bos taurus (Bovine))",
    "IC50": "13.7 nM"
  }
]
